- experiment: DUSP6 inhibitors restoring Erk phosphorylation by chemical complementation, primary imaging in DUSP6-transfected HeLa (AID 609)
- details: HeLa MKP-3 transfected, phospho-Erk imaging KS statistic; measured here: cell density z-score; at 10 µM; cells stimulated with TPA for 15 min
Measured z-score, listed per entry.
# output: bare number, no unit

Before answering, review these 3 worked examples.
>  <compound>
O=C(Nc1nc(=O)c2ccccc2s1)c1ccccc1

>  <property_label>
z-score

>  <endpoint_value>
0.159

$$$$
>  <compound>
C[N+](C)(C)CCOP(=O)([O-])OC[C@H](O)CO

>  <property_label>
z-score

>  <endpoint_value>
0.542

$$$$
>  <compound>
CSc1nc(O)c(Cc2ccccc2)c(=O)[nH]1

>  <property_label>
z-score

>  <endpoint_value>
-0.704

$$$$

query: Requested field: z-score. Item: `O=S(=O)(O)c1nc2ccccc2n1Cc1ccc(Cl)cc1Cl`
result: -0.945

query: Also need `CCCNC(=O)N(C)c1nncnc1C(=O)NC` , thanks.
result: 1.47

query: Also need `O=C(CSc1nnc(-c2ccco2)c(-c2ccco2)n1)Nc1ccccc1` , thanks.
result: 0.318

query: // next record `Cc1c(Cl)c(C(F)(F)F)nn1CC(=O)N1CCSCC1`
result: -0.563

query: Queued: `Cc1cc(C)cc(-n2c3nc4ccccc4nc3c3c(=O)n(Cc4ccco4)cnc32)c1`
result: 0.126

query: Now the same for `CCOC(=O)c1sc(-n2[nH]c(C)cc2=O)nc1C`
result: 1.1

query: What do you have for COCc1[nH]nc2c1C(c1ccnc3ccccc13)C(C#N)=C(N)O2 (stereo not given) ?
result: 0.598

query: Would you kindly repeat that for `Fc1cnc(N2CCOCC2)nc1NCc1ccccc1` ?
result: -0.315

----------
- target_of_assay: Voltage-gated potassium channel subunit beta-2 (Rattus norvegicus)
- experiment: KvBeta enzyme negative modulators, primary screen, biochemical, NADPH fluorescence (AID 622);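 note: slope of raw intensity against log time taken from 70 to 1610 s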
- details: recombinant KvBeta, 4-cyanobenzaldehyde reduction, at 10 µM, stronger effect = higher value
Activity calls are given as the source filed them.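 The calls were made as follows: active = fluorescence slope higher than the sample average by over 3 SD (cut at about -0.22 in these data, passing the limit was not always enough); inactive = the rest.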
property_label: fluorescence slope

Some compounds with recorded fluorescence slope:
>  <compound>
CCC1CCCCN1c1nc(-c2ccncc2)nc2ccccc12 (centres undefined)

>  <fluorescence slope>
-0.391 (inactive)

$$$$
>  <compound>
CC1(C)NC(=O)N(CC(O)Cn2nnc3ccccc32)C1=O (centres undefined)

>  <fluorescence slope>
-0.357 (inactive)

$$$$
>  <compound>
COc1ccccc1-c1nn2c(-c3ccc(C(C)(C)C)cc3)nnc2s1

>  <fluorescence slope>
-0.42 (inactive)

$$$$

query: Entry Cc1nc2c(c(=O)n1CC1CCCO1)c1nc3ccccc3nc1n2CC(C)C (centres undefined) : reported fluorescence slope = ?
result: -0.449 (inactive)

----------
- target_of_assay: Voltage-gated potassium channel subunit beta-2 (Rattus norvegicus) (UniProt P62483)
- Sequence (P62483 whole entry, looked up): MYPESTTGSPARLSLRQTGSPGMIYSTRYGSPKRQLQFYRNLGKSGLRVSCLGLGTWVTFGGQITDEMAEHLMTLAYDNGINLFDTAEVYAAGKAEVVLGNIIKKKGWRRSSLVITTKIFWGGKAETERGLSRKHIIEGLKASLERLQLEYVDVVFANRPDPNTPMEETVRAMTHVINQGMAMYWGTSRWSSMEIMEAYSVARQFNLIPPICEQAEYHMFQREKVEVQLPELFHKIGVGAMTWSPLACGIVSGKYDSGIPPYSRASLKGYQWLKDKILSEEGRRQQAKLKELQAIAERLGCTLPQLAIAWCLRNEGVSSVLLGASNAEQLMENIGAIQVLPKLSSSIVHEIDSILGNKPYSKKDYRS
- experiment: KvBeta positive modulators, primary screen, biochemical, NADPH fluorescence (AID 623);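 note: fluorescence intensity change per second fitted from 20 to 320 s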
- details: Recombinant KvBeta, NADPH fluorescence decrease slope, 10 min; at 10 µM; stronger effect = lower value
property_label: NADPH fluorescence slope
Form field (numeric): enter value without unit.

Would you please look over these solved cases?
>  <compound>
CC(=O)N1CCN(c2nc(CC(C)C)c3c(c2C#N)CCC3)CC1

>  <NADPH fluorescence slope>
-4.8e-05

$$$$
>  <compound>
CN(C(=O)C(Cl)Cl)c1ccc(OC(=O)c2ccco2)cc1

>  <NADPH fluorescence slope>
-6.7e-05

$$$$
>  <compound>
COc1cccc(N2CCN(c3ncnc4c3[nH]c3ccc(F)cc34)CC2C)c1 (centres undefined)

>  <NADPH fluorescence slope>
-9.3e-05

$$$$
>  <compound>
Cc1ccccc1C(=O)c1ccc2c(c1)n(C)c(=O)n2C

>  <NADPH fluorescence slope>
-5.8e-05

$$$$
>  <compound>
COc1ccc(/C(O)=C2\C(=O)C(=O)N(CCN(C)C)C2c2cccc(OC)c2OC)cc1 (centres undefined)

>  <NADPH fluorescence slope>
-2.9e-05

$$$$

query: API: value(readout=NADPH fluorescence slope, system=Voltage-gated potassium channel subunit beta-2 (Rattus norvegicus) (UniProt P62483)) for record COc1ccc(/C(O)=C2/C(=O)C(=O)N(CCN(C)C)C2c2ccccn2)cc1OC (centres undefined)
result: -8.1e-05

query: Also CN(C)C(CN1C(=O)C2CC=CCC2C1=O)c1cn(C)c2ccccc12 (centres undefined) , if possible.
result: -2.6e-05

query: For Cc1cccc(N2C(=O)CC(N3CCN(Cc4ccc(Cl)cc4)CC3)C2=O)c1 (centres undefined) then?
result: -3.6e-05

query: What do you get for `CCOC(=O)c1cc(C)n(Cc2cccc(OC)c2OC)c1C` ?
result: -9.4e-05

query: Also check CCOc1ccc(/C(O)=C2/C(=O)C(=O)N(CCN(C)C)C2c2ccccc2)cc1Cl (centres undefined)
result: -5.4e-05

----------
- experiment: inhibitors of Chlamydomonas gravitaxis, primary screen, whole organism, Chlamydomonas reinhardtii, WT vs cilia-less mutant, absorbance, 96-well (AID 463189);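 note: 0% = wild type cc124 cells in DMSO and 100% = ciliumless bld1 mutant cells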
- details: OD600 absorbance, 2 days, at 10 µM, stronger effect = higher value
// values below are reported inhibition
Express the result in % but write the number alone.

query: Requested read-out: inhibition. Entry: `Clc1ccccc1CSc1nnc(-c2ccco2)c(-c2ccco2)n1`
result: 19.9

query: Another: `O=CNC(=O)c1ccccc1C(=O)O`
result: 28.5

query: Moving on to the next compound: `COC(=O)c1ccc(=O)n(Cc2ccc3c(c2)OCO3)c1`
result: -6.36

----------
- experiment: inhibitors of Chlamydomonas gravitaxis, primary screen, whole organism, Chlamydomonas reinhardtii, WT vs cilia-less mutant, absorbance, 96-well (AID 463189);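 note: 0% = wild type cc124 cells in DMSO and 100% = ciliumless bld1 mutant cells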
- details: OD600 absorbance, 2 days, at 10 µM, stronger effect = higher value
property_label: inhibition (%)
Respond numerically; units are % and should not be typed.

>  <molecule>
CC(=O)c1cc(CN2CCCCC2)cc(OC(C)C)c1

>  <property_label>
inhibition

>  <endpoint_value>
10.4

$$$$
>  <molecule>
CCCCOc1ccc(C(=O)Nn2cnnc2)cc1

>  <property_label>
inhibition

>  <endpoint_value>
0.154

$$$$
>  <molecule>
COc1ccc(Cn2c(CCCO)nc3ccccc32)cc1OC

>  <property_label>
inhibition

>  <endpoint_value>
2.72

$$$$
>  <molecule>
CC(NCCc1ccc(O)cc1)C(O)c1ccc(O)cc1 (stereo unspecified)

>  <property_label>
inhibition

>  <endpoint_value>
4.91

$$$$
>  <molecule>
Cc1ccc(-c2nnc(-c3cccc(Br)c3)o2)cc1

>  <property_label>
inhibition

>  <endpoint_value>
8.63

$$$$

Consider the additional molecule presented here.
query: // returns reported inhibition for input Cc1nn(-c2cccc(Cl)c2)c2c1C(c1ccncc1)C(C#N)=C(N)O2 (stereo unspecified)
result: -1.15

----------
- experiment: inhibitors of E-selectin induction by TNFa, primary screen, imaging, HUVEC, immunofluorescence, MLSMR starter and 10KST1 sets (AID 487);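 note: signal is fraction of cell area covered by stained E-selectin grains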
- details: HUVEC TNFalpha-induced E-selectin immunofluorescence imaging, at 2 µM; stronger effect = higher value
Documented inhibition across a set of compounds
The answer is to be given in %; state only the numeric part.

// below: answered compounds
>  <compound>
CCOc1cccc(-c2nnc3sc(-c4cccs4)nn23)c1

>  <inhibition (%)>
-85.6

$$$$
>  <compound>
Nc1ccc2c(c1)N1CCN=C1S2

>  <inhibition (%)>
-53.2

$$$$
>  <compound>
C=CCn1c(SCC#N)nc2c(c1=O)C(C)(C)Cc1ccccc1-2

>  <inhibition (%)>
-30.9

$$$$
>  <compound>
COn1c(=S)[nH]c2ccccc2c1=O

>  <inhibition (%)>
-12.8

$$$$
>  <compound>
c1ccc(Cc2nn[nH]n2)cc1

>  <inhibition (%)>
49.2

$$$$
>  <compound>
CCOC(=O)c1c(C)n(C)c2ccc(OC)c(NC(=O)CN3CCSCC3)c12

>  <inhibition (%)>
35.2

$$$$

query: inhibition for `CC1(C)Cc2c(C#N)c(SCCC#N)nc(N3CCOCC3)c2CS1` ?
result: -104

query: And then CN(CCO)CC(O)Cn1cnc2c1c(=O)n(C)c(=O)n2C (stereo not given) (tested in a mixture with another compound) , what is it?
result: 6.8

query: Queued: `COc1ccc(-c2cc3nc4n(c(=O)c3s2)CCOC4)cc1`
result: 30.7

query: Continue with `c1cncc(-c2nnc3sc(C4CCCCC4)nn23)c1`
result: -138

----------
- experiment: inhibitors of TNFa-induced NFkB p65 translocation, primary screen, imaging, HUVEC, MLSMR starter and 10KST1 sets (AID 438);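 note: compound added about 3h40 before a 20 min TNFalpha stimulation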
- details: HUVEC TNFa-induced p65 nuclear translocation; measured here: nuclei count (cytotoxicity indicator), at 2.08 µM
Recorded cell count values for a group of molecules are listed next.
# output: bare number, no unit

See these solved cases before continuing.
>  <molecule>
Cc1ccc2cc(CN(C(=O)c3ccco3)c3ccccc3)c(=O)[nH]c2c1

>  <cell count>
312

$$$$
>  <molecule>
Cn1c(SCC(=O)NCc2ccccc2)nc2ccccc21

>  <cell count>
325

$$$$
>  <molecule>
Cc1cccc(C)c1NC(=O)CSCC(=O)c1ccc(O)c(O)c1

>  <cell count>
364

$$$$
>  <molecule>
CCSc1nnc(NC(=O)C(CC)(C(F)(F)F)C(F)(F)F)s1

>  <cell count>
702

$$$$
>  <molecule>
CCOC(=O)c1cc2c(=O)n3cccc(C)c3nc2n(Cc2cccnc2)c1=N

>  <cell count>
583

$$$$
>  <molecule>
C=CCOc1nc2c(c(=O)n(Cc3ccc(Cl)c(Cl)c3)c(=O)n2C)n1C

>  <cell count>
654

$$$$
>  <molecule>
COc1ccc(-c2nnc3sc(-c4ccccc4OC)nn23)cc1

>  <cell count>
615

$$$$
>  <molecule>
COc1cc(-c2nn3c(-c4ccco4)nnc3s2)cc(OC)c1OC

>  <cell count>
483

$$$$
>  <molecule>
COc1ccc(-c2cc3nc4n(c(=O)c3s2)CCOC4)cc1

>  <cell count>
561

$$$$
>  <molecule>
CC1(C)Cc2c(sc3nc(SCC#N)n(C4CCCCC4)c(=O)c23)CO1

>  <cell count>
633

$$$$

query: Quick one: cell count of `C=CCOc1nc2c(c(=O)n(C)c(=O)n2C)n1Cc1ccccc1Cl` ?
result: 617

query: Cool, now `CCOC(=O)c1[nH]c2ccc(OC)cc2c1NC(=O)CCN1CCN(Cc2ccccc2)CC1`
result: 541

query: And the next one, `Nc1nc(NC(=O)c2cccs2)nn1-c1ccccc1` ?
result: 647

This collection of values is drawn from PubChem BioAssay.
